pIC50: −log10 of the molar value.
The following compounds have recorded pIC50 on AKT3 (Homo sapiens, UniProt Q9Y243).
Sequence (Q9Y243 whole entry): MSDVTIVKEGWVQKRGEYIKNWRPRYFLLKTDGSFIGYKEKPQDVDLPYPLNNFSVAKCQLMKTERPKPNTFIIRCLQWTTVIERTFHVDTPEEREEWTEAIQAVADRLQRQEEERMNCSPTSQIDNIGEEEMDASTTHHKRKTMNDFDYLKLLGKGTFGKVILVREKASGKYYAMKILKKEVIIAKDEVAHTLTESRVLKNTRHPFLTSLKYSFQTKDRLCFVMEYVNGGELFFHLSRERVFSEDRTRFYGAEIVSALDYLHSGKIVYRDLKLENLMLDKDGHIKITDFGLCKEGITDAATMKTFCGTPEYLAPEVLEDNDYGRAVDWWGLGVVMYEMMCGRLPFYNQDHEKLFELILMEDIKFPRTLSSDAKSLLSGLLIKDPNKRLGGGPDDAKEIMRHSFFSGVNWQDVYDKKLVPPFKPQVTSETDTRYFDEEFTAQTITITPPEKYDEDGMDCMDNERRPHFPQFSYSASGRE

>  <compound>
NC1(c2ccc(-c3nc4c(cc3-c3ccccc3)NC(=O)CCN4)cc2)CCC1

>  <system>
AKT3 (Homo sapiens, UniProt Q9Y243)

>  <pIC50>
< 5.00

$$$$
>  <compound>
CN1C(=O)COc2nc(-c3ccc([C@]4(N)C[C@@](C)(O)C4)cc3)c(-c3ccccc3)cc21

>  <system>
AKT3 (Homo sapiens, UniProt Q9Y243)

>  <pIC50>
< 5.00

$$$$
>  <compound>
CCN1C(=O)COc2nc(-c3ccc(C4(N)CCC4)cc3)c(-c3ccccc3)cc21

>  <system>
AKT3 (Homo sapiens, UniProt Q9Y243)

>  <pIC50>
5.00 to 6.00

$$$$
>  <compound>
CN(C)CCN1C(=O)COc2nc(-c3ccc(C4(N)CCC4)cc3)c(-c3ccccc3)cc21

>  <system>
AKT3 (Homo sapiens, UniProt Q9Y243)

>  <pIC50>
< 5.00

$$$$
>  <compound>
CN1c2cc(-c3ccccc3)c(-c3ccc(C4(N)CCC4)cc3)nc2OCS1(=O)=O

>  <system>
AKT3 (Homo sapiens, UniProt Q9Y243)

>  <pIC50>
< 5.00

$$$$
>  <compound>
NC1(c2ccc(-c3nc4c(cc3-c3ccccc3)-n3c(CO)nnc3CO4)cc2)CCC1

>  <system>
AKT3 (Homo sapiens, UniProt Q9Y243)

>  <pIC50>
5.00 to 6.00

$$$$
>  <compound>
NC1(c2ccc(-c3nc4c(cc3-c3ccccc3)-n3c(Br)nnc3CO4)cc2)CCC1

>  <system>
AKT3 (Homo sapiens, UniProt Q9Y243)

>  <pIC50>
5.00 to 6.00

$$$$
>  <compound>
CN1C(=O)COc2nc(-c3ccc([C@]4(N)C[C@H](O)C4)cc3)c(-c3ccccc3)cc21

>  <system>
AKT3 (Homo sapiens, UniProt Q9Y243)

>  <pIC50>
5.00 to 6.00

$$$$
>  <compound>
CC(C#N)N1C(=O)COc2nc(-c3ccc(C4(N)CCC4)cc3)c(-c3ccccc3)cc21 (stereo not shown)

>  <system>
AKT3 (Homo sapiens, UniProt Q9Y243)

>  <pIC50>
5.00 to 6.00

$$$$
>  <compound>
CC(C)CN1C(=O)COc2nc(-c3ccc(C4(N)CCC4)cc3)c(-c3ccccc3)cc21

>  <system>
AKT3 (Homo sapiens, UniProt Q9Y243)

>  <pIC50>
5.00 to 6.00

$$$$
>  <compound>
NC1(c2ccc(-c3nc4c(cc3-c3ccccc3)NCCO4)cc2)CCC1

>  <system>
AKT3 (Homo sapiens, UniProt Q9Y243)

>  <pIC50>
< 5.00

$$$$
>  <compound>
CS(=O)(=O)N1CCOc2nc(-c3ccc(C4(N)CCC4)cc3)c(-c3ccccc3)cc21

>  <system>
AKT3 (Homo sapiens, UniProt Q9Y243)

>  <pIC50>
< 5.00

$$$$
>  <compound>
N[C@]1(c2ccc(-c3nc4c(cc3-c3ccccc3)N(CC3CC3)C(=O)CO4)cc2)C[C@H](O)C1

>  <system>
AKT3 (Homo sapiens, UniProt Q9Y243)

>  <pIC50>
5.00 to 6.00

$$$$
>  <compound>
C[C@]1(O)C[C@@](N)(c2ccc(-c3nc4c(cc3-c3ccccc3)N(CC3CC3)C(=O)CO4)cc2)C1

>  <system>
AKT3 (Homo sapiens, UniProt Q9Y243)

>  <pIC50>
6.00 to 7.00

$$$$
>  <compound>
C[C@]1(O)C[C@@](N)(c2ccc(-c3nc4c(cc3-c3ccccc3)-n3c(n[nH]c3=O)CO4)cc2)C1

>  <system>
AKT3 (Homo sapiens, UniProt Q9Y243)

>  <pIC50>
5.00 to 6.00

$$$$
>  <compound>
NC1(c2ccc(-c3nc4c(cc3-c3ccccc3)NC(=O)NC4)cc2)CCC1

>  <system>
AKT3 (Homo sapiens, UniProt Q9Y243)

>  <pIC50>
< 5.00

$$$$

====

The following compounds have recorded IC50 on AKT3 (Homo sapiens, UniProt Q9Y243).

>  <compound>
CN(C)CCN1CCc2nc(-c3ccc(C4(N)CCC4)cc3)c(-c3ccccc3)cc2C1=O [Example 25]

>  <system>
AKT3 (Homo sapiens, UniProt Q9Y243)

>  <IC50>
> 10 µM

$$$$
>  <compound>
CN(C)c1nnc2n1-c1cc(-c3ccccc3)c(-c3ccc(C4(N)CCC4)cc3)nc1OC2 [Example 116]

>  <system>
AKT3 (Homo sapiens, UniProt Q9Y243)

>  <IC50>
1 to 10 µM

$$$$
>  <compound>
CN1C(=O)COc2nc(-c3ccc([C@]4(N)C[C@@H](O)C4)cc3)c(-c3ccccc3)cc21 [Example 97]

>  <system>
AKT3 (Homo sapiens, UniProt Q9Y243)

>  <IC50>
1 to 10 µM

$$$$
>  <compound>
CCc1nnc2n1-c1cc(-c3ccccc3)c(-c3ccc(CN)cc3)nc1OC2 [Example 142]

>  <system>
AKT3 (Homo sapiens, UniProt Q9Y243)

>  <IC50>
1 to 10 µM

$$$$
>  <compound>
CC(C)N1C(=O)COc2nc(-c3ccc(C4(N)CCC4)cc3)c(-c3ccccc3)cc21 [Example 57]

>  <system>
AKT3 (Homo sapiens, UniProt Q9Y243)

>  <IC50>
1 to 10 µM

$$$$
>  <compound>
NC1(c2ccc(-c3nc4c(cc3-c3ccccc3)-n3c(nnc3-c3ccccc3)CO4)cc2)CCC1 [Example 129]

>  <system>
AKT3 (Homo sapiens, UniProt Q9Y243)

>  <IC50>
1 to 10 µM

$$$$
>  <compound>
Cn1cc2c(n1)-c1cc(-c3ccccc3)c(-c3ccc(C4(N)CCC4)cc3)nc1CC2 [Example 5]

>  <system>
AKT3 (Homo sapiens, UniProt Q9Y243)

>  <IC50>
> 10 µM

$$$$
>  <compound>
Nc1nnc2n1-c1cc(-c3ccccc3)c(-c3ccc(C4(N)CCC4)cc3)nc1OC2 [Example 50]

>  <system>
AKT3 (Homo sapiens, UniProt Q9Y243)

>  <IC50>
1 to 10 µM

$$$$
>  <compound>
CN1C(=O)COc2nc(-c3ccc([C@]4(N)C[C@](C)(O)C4)cc3)c(-c3ccccc3)cc21 [Example 113]

>  <system>
AKT3 (Homo sapiens, UniProt Q9Y243)

>  <IC50>
1 to 10 µM

$$$$
>  <compound>
NC1(c2ccc(-c3nc4c(cc3-c3ccccc3)N(CCF)C(=O)CO4)cc2)CCC1 [Example 86]

>  <system>
AKT3 (Homo sapiens, UniProt Q9Y243)

>  <IC50>
1 to 10 µM

$$$$
>  <compound>
N#CCN1c2cc(-c3ccccc3)c(-c3ccc(C4(N)CCC4)cc3)nc2OCS1(=O)=O [Example 76]

>  <system>
AKT3 (Homo sapiens, UniProt Q9Y243)

>  <IC50>
> 10 µM

$$$$
>  <compound>
NC1(c2ccc(-c3nc4c(cc3-c3ccccc3)C(=O)NCC4)cc2)CCC1 [Example 22]

>  <system>
AKT3 (Homo sapiens, UniProt Q9Y243)

>  <IC50>
> 10 µM

$$$$
>  <compound>
NC1(c2ccc(-c3nc4c(cc3-c3ccccc3)/C(=N/O)CCC4)cc2)CCC1 [Example 2]

>  <system>
AKT3 (Homo sapiens, UniProt Q9Y243)

>  <IC50>
> 10 µM

$$$$
>  <compound>
COCC1Oc2nc(-c3ccc(C4(N)CCC4)cc3)c(-c3ccccc3)cc2N(CC#N)C1=O (centres unmarked) [Example 95]

>  <system>
AKT3 (Homo sapiens, UniProt Q9Y243)

>  <IC50>
> 10 µM

$$$$
>  <compound>
Cn1cnc(-c2nnc3n2CCc2nc(-c4ccc(C5(N)CCC5)cc4)c(-c4ccccc4)cc2-3)c1 [Example 29]

>  <system>
AKT3 (Homo sapiens, UniProt Q9Y243)

>  <IC50>
> 10 µM

$$$$
>  <compound>
NC1(c2ccc(-c3nc4c(cc3-c3ccccc3)-c3ncncc3CC4)cc2)CCC1 [Example 16]

>  <system>
AKT3 (Homo sapiens, UniProt Q9Y243)

>  <IC50>
1 to 10 µM

$$$$
>  <compound>
CN1CCC(=O)N(C)c2cc(-c3ccccc3)c(-c3ccc(C4(N)CCC4)cc3)nc21 [Example 111]

>  <system>
AKT3 (Homo sapiens, UniProt Q9Y243)

>  <IC50>
> 10 µM

$$$$
>  <compound>
NC1(c2ccc(-c3nc4c(cc3-c3ccccc3)N(C3CCC3)C(=O)CO4)cc2)CCC1 [Example 61]

>  <system>
AKT3 (Homo sapiens, UniProt Q9Y243)

>  <IC50>
1 to 10 µM

$$$$
>  <compound>
NC1(c2ccc(-c3nc4c(cc3-c3ccccc3)N(c3cccnc3)CCO4)cc2)CCC1 [Example 91]

>  <system>
AKT3 (Homo sapiens, UniProt Q9Y243)

>  <IC50>
1 to 10 µM

$$$$
>  <compound>
C#CCN1C(=O)COc2nc(-c3ccc(C4(N)CCC4)cc3)c(-c3ccccc3)cc21 [Example 32]

>  <system>
AKT3 (Homo sapiens, UniProt Q9Y243)

>  <IC50>
> 10 µM

$$$$
>  <compound>
CC1Oc2nc(-c3ccc(C4(N)CCC4)cc3)c(-c3ccccc3)cc2NC1=O (centres unmarked) [Example 80]

>  <system>
AKT3 (Homo sapiens, UniProt Q9Y243)

>  <IC50>
> 10 µM

$$$$
>  <compound>
NC1(c2ccc(-c3nc4c(cc3-c3ccccc3)-n3c(n[nH]c3=O)CO4)cc2)CCC1 [Example 38]

>  <system>
AKT3 (Homo sapiens, UniProt Q9Y243)

>  <IC50>
1 to 10 µM

$$$$
>  <compound>
N[C@]1(c2ccc(-c3nc4c(cc3-c3ccccc3)N(CC(F)(F)F)C(=O)CO4)cc2)C[C@H](O)C1 [Example 148]

>  <system>
AKT3 (Homo sapiens, UniProt Q9Y243)

>  <IC50>
> 10 µM

$$$$
>  <compound>
NC1(c2ccc(-c3nc4c(cc3-c3ccccc3)N(CC3CC3)C(=O)CO4)cc2)CCC1 [Example 55]

>  <system>
AKT3 (Homo sapiens, UniProt Q9Y243)

>  <IC50>
0.1 to 1 µM

$$$$
>  <compound>
NC1(c2ccc(-c3nc4c(cc3-c3ccccc3)N(Cc3ncc[nH]3)C(=O)CO4)cc2)CCC1 [Example 42]

>  <system>
AKT3 (Homo sapiens, UniProt Q9Y243)

>  <IC50>
1 to 10 µM

$$$$
>  <compound>
COCC1Oc2nc(-c3ccc(C4(N)CCC4)cc3)c(-c3ccccc3)cc2N(C)C1=O (centres unmarked) [Example 96]

>  <system>
AKT3 (Homo sapiens, UniProt Q9Y243)

>  <IC50>
> 10 µM

$$$$
>  <compound>
CCCc1nnc2n1-c1cc(-c3ccccc3)c(-c3ccc(C4(N)CCC4)cc3)nc1OC2 [Example 69]

>  <system>
AKT3 (Homo sapiens, UniProt Q9Y243)

>  <IC50>
1 to 10 µM

$$$$
>  <compound>
CN1C(=O)C(CCO)Oc2nc(-c3ccc(C4(N)CCC4)cc3)c(-c3ccccc3)cc21 (centres unmarked) [Example 77]

>  <system>
AKT3 (Homo sapiens, UniProt Q9Y243)

>  <IC50>
> 10 µM

$$$$
>  <compound>
NC(=O)c1nnc2n1-c1cc(-c3ccccc3)c(-c3ccc(C4(N)CCC4)cc3)nc1OC2 [Example 119]

>  <system>
AKT3 (Homo sapiens, UniProt Q9Y243)

>  <IC50>
1 to 10 µM

$$$$
>  <compound>
NC1(c2ccc(-c3nc4c(cc3-c3ccccc3)N(C3CCOCC3)C(=O)CO4)cc2)CCC1 [Example 65]

>  <system>
AKT3 (Homo sapiens, UniProt Q9Y243)

>  <IC50>
> 10 µM

$$$$
>  <compound>
CC1Oc2nc(-c3ccc(C4(N)CCC4)cc3)c(-c3ccccc3)cc2N(CC#N)C1=O (centres unmarked) [Example 81]

>  <system>
AKT3 (Homo sapiens, UniProt Q9Y243)

>  <IC50>
1 to 10 µM

$$$$
>  <compound>
CO/N=C1\COc2nc(-c3ccc(C4(N)CCC4)cc3)c(-c3ccccc3)cc2N1C [Example 90]

>  <system>
AKT3 (Homo sapiens, UniProt Q9Y243)

>  <IC50>
> 10 µM

$$$$
